# tested system: UniProt P22303
# Sequence (P22303 32-614): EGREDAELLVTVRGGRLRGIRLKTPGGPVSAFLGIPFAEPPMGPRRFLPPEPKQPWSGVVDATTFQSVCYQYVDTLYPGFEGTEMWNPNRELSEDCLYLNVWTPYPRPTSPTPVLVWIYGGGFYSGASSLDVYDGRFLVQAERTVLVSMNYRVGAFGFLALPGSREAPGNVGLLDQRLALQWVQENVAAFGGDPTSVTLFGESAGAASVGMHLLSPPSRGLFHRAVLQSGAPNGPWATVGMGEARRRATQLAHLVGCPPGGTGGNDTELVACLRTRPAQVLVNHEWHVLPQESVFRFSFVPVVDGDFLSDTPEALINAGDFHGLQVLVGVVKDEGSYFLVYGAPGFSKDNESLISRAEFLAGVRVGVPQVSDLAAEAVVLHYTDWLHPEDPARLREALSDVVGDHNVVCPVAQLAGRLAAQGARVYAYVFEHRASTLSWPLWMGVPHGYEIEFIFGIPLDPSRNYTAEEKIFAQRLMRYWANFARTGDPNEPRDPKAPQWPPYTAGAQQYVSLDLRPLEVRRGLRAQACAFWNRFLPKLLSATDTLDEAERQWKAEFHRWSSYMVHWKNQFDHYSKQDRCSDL
# method summary: Inhibition constants: inhibition of acetyl cholinesterase (AChE), acetyl thiocholine and Ellman's reagent
# Format: biochemical
pKi: −log10 of the molar value.
endpoint: pKi

smiles	endpoint result
C[N+](C)(CCCCO)CCCC(=O)C(F)(F)F	7.19

----------
# tested system: UniProt:P22303
# method summary: Inhibition constants: inhibition of acetyl cholinesterase (AChE), acetyl thiocholine and Ellman's reagent
# Type: biochemical
# test conditions: AChE; 50 mM Tris pH=8.0; 20 minutes incubation at ambient temperature; acetyl thiocholine and Ellman's reagent; read-out: Ki (M)* (Esterase)
# Method: Inhibition constants were measured in 50 mM Tris pH=8.0. Enzyme and inhibitor were incubated at ambient temperature for 20 minutes. Substrate for the enzyme was then added and the rate of hydrolysis was followed spectrophotometrically. The substrate for PLE and RLE was o-nitrophenylbutyrate and for AChE was acetyl thiocholine and Ellman's reagent.

smiles	units text	Ki
C[N+](C)(CCO)CCCC(=O)C(F)(F)F	M	5e-09
